- Tgt: Rabies virus glycoprotein G, strain CVS-11 (Challenge Virus Standard-11, ATCC VR 959) (Rabies virus, strain CVS-11)
- Experiment Notes: cell-based or functional assay
Value Type: CVS neutralizing antibody titre (RFFIT): IU/ml (IU/ml)
Write down the numeric answer in IU/ml and omit the unit.

Give the reported value of CVS neutralizing antibody titre (RFFIT): IU/ml for this record: 214-E8 25GS 212-C12 (VHH) EVQLVESGGGSVQAGGSLRLSCAASGGTFNPYVMAWFRQAPGNEREFVARIRWSGGDAYYDDSVKGRFAITRDAAKNTVHLQMNSLKPEDTAVYYCAAATYGYGSYTYGGSYDLWGQGTQVTVSSGGGGSGGGGSGGGGSGGGGSGGGGSEVQLVESGGGLVQPGGSLRLSCAASGFTFGSSDMSWVRQAPGKGPEWVSGINSGGGRTLYADSVKGRFTISRDNAKNTLYLQMNSLKSEDTAVYYCATDLYGSSWYTDYWSQGTQVTVSS
70.5
